Value source: patent US20220056112A1

Listed below: log10 of koff values for each entry.
- target: nucleocapsid protein of SARS-CoV-2 (SARS-CoV-2, UniProt P0DTC9 1-419)
property: log10 of koff (log10 of the value in s⁻¹)

>>> numericvalue("rabbit monoclonal antibody 3A7 against the SARS-CoV-2 nucleocapsid protein (antibody, V domains shown) VH: QEQLEESGGGLVQPEGSLTLTCTASGFSLSDSAYMCWVRQAPGKGLEWIACIDAGVSGSTYYASWVNGRFTISKTSSTTVTLQMTSLTVADTATYFCARDFLYTPNNAGDIMDLWGPGTLVTVSL VL: AQVLTQTPSSVSAAVGGTVTINCQSSHTVYSNNYLSWYQQKPGQPPKLLIYSASSLASGVPSRFKGSGSGTQFTLTISDLECDDAAIYYCHGYWRGPVNDFGGGTEVVVEG")
-3.57
>>> numericvalue("rabbit monoclonal antibody 11B12 against the SARS-CoV-2 nucleocapsid protein (antibody, V domains shown) VH: QQQLEESGGGLVKPGGTLTLTCTVSGLSLSSNTLNWVRQAPGKGLEWIGTIFIDDEDTYYASWAKGRFTISKTSSTTITLKMTSLTAADTATYFCARSSDLWDPGTLVVVSS VL: AQVLTQTPSSVSAAVGGTVTINCQASQSVYKNNYLSWFQQKPGQPPKLLIYQASKLASGVSSRFKGSGSGTQFTLTISDVQCDDAATYFCLGSYDCRSANCIVFGGGTEVVVKG")
-4.58
>>> numericvalue("rabbit monoclonal antibody 5B4 against the SARS-CoV-2 nucleocapsid protein (antibody, V domains shown) VH: QSLEESGGGLVKPGGTLTLTCTVSGLSLSTNAPNWVRQAPGKGLEWIGTIFIDDEDTYYASWAKGRFTISKTSSTTITLKMTSLTAADTATYFCARNSDLWDPGTLVVVSS VL: AQVLTQTPSPVSAAVGGTVTINCQASQSVYNNNYLSWFQQKPGQPPKLLIYKASTLASGVSSRFKGSGSGTQFTLTISDVQCDDAATYFCLGSYDCRSANCIVFGGGTEVVVKG")
-3.58
>>> numericvalue("rabbit monoclonal antibody 1G7 against the SARS-CoV-2 nucleocapsid protein (antibody, V domains shown) VH: QQQVVESGGGLVKPGASLTLTCEASGFSFSSGYDMCWVRQAPGKGLEWIACIYPGSSGNTYYASWAKGRFTISKTSSTTVTLQMTSLTAADTATYFCARTYASSSGDYIPYFFNLWGPGTLVTVSS VL: DIVMTQTPASVEAAVGGTVTIKCQASENIYSGLAWYQQKPGQPPKLLIYDASDLASGVPSRFKGSGSGTEYTLTISDLECADAATYYCQNYYYSSRGFNTFGGGTEVVVKG")
-4.01
>>> numericvalue("rabbit monoclonal antibody 6H7 against the SARS-CoV-2 nucleocapsid protein (antibody, V domains shown) VH: QQQLEESGGGLVQPGGSLTLSCKASGFNVNSDCYMCWVRQAPGKGLEWIGCIDTVSGSTYYATWAKGRFTISKTSSTTVTLQMTSLTAADTATYFCARDFLYNVNNAGDIMDLWGPGTLVTVSL VL: AQVLTQTPSSVSAAVGGTVTINCQSSYNVYNNNYLAWYQQKPGQPPKLLIYTTSTLASGVPSRFSGSGSGTQFTLTISDLECDDAAIYYCQGYYRGPVNDFGGGTEVVVEG")
-3.62
>>> numericvalue("rabbit monoclonal antibody 5B12 against the SARS-CoV-2 nucleocapsid protein (antibody, V domains shown) VH: QSLEESGGDLVQPEGTLTLTCTASGFSFFYDYYMCWVRQAPGKGLEWIGCIYGASGDTYYASWAKGRFTISKTSSTTVTLRMTSLTAADTATYFCARDVDTGSGIDFELWGPGTLVTVSS VL: AYDMTQTPASVEVAVGGTVTIKCQASQSIGSYLSWYQQKPGQPPKLLIYSTSTLASGVPSRFKGSGSGTQFTLTISGVECADAATYYCQQGDTNHNIDNIFGGGTEVVVEG")
-4.08
>>> numericvalue("rabbit monoclonal antibody 1F8 against the SARS-CoV-2 nucleocapsid protein (antibody, V domains shown) VH: QEHLEESGGGLVKPGASLTLTCTASGFSLSNNYWICWVRQAPGKGLEWIACIYTGRDYTYYTSWAKGRFTISKTSSTTVTLQLNSLTAADTATYFCARNNTDYGDYWDLWGPGTLVTVSS VL: AQVLTQTASPVSVAVGDTVTINCQASQSVYKNNYLAWYQLKPGQPPKLLIYWGTKLPSGVPSRFKGSGSGTHFTLTISDVQCDDAATYYCLGSYDCTIAECNVFGGGTEVVVEG")
-3.69
